Give measured Drug uptake for each item. Keep answers brief.
- Test system: Thyroid gland
- Experimental Details: Biodistribution in thyroid of C57BL/6 mouse bearing mouse B16-F0 cells at 0.74 to 0.92 MBq, iv after 24 hrs
- Type: ADME, organism-based
- Recorded Conditions: in vivo
Report field: quantity (unit follows the number).

CCN(CC)CCNC(=O)c1ccc([125I])nc1.Cl.Cl ... 111.3 % ID/g

Count: 7. Required value per item: Drug uptake.
1. CCN(CC)CCNC(=O)c1cc2cc([125I])ccc2o1.Cl
2. CCN(CC)CCNC(=O)c1c[nH]c2ccc([125I])cc2c1=O.Cl.Cl
3. CCN(CC)CCNC(=O)c1nc2cc([125I])ccc2[nH]1.Cl.Cl
4. CCN(CC)CCNC(=O)c1cc2c([125I])cccc2s1.Cl
5. CCN(CC)CCNC(=O)c1ccc2cncc([125I])c2n1.Cl.Cl
6. CCN(CC)CCNC(=O)c1cnc2cc([125I])ccc2n1.Cl.Cl
7. CCN(CC)CCNC(=O)c1cc2c([125I])cccc2cn1.Cl.Cl

Result ::
["30.38 % ID/g", "5.09 % ID/g", "142.88 % ID/g", "79.82 % ID/g", "115.66 % ID/g", "94.22 % ID/g", "88.65 % ID/g"]

---

- Experimental Details: Ratio of drug level in tumor to lung of C57BL/6 mouse bearing mouse B16-F0 cells at 0.74 to 0.92 MBq, iv after 1 hr
- Format: ADME, organism-based
- Recorded Conditions: in vivo
Measured Endpoint: Ratio

CCN(CC)CCNC(=O)c1ccc2cc([125I])ccc2n1.Cl.Cl ... 2.09

I need Ratio for every entry listed below, if you could help.
1. CCN(CC)CCNC(=O)c1cc2c([125I])cccc2s1.Cl
2. CCN(CC)CCNC(=O)c1cc2cc([125I])ccc2[nH]1.Cl
3. CCN(CC)CCNC(=O)c1c[nH]c2ccc([125I])cc2c1=O.Cl.Cl
4. CCN(CC)CCNC(=O)c1nc2cc([125I])ccc2[nH]1.Cl.Cl
5. CCN(CC)CCNC(=O)c1ccc([125I])nc1.Cl.Cl

Result ::
[3.38, 0.58, 2.28, 2.86, 2.04]

For each of the items listed, what is its Ratio?
1. CCN(CC)CCNC(=O)c1cn2cc([125I])ccc2n1.Cl.Cl
2. CCN(CC)CCNC(=O)c1cc2cc([125I])ccc2o1.Cl
3. CCN(CC)CCNC(=O)c1cnc2cc([125I])ccc2n1.Cl.Cl
4. CCN(CC)CCNC(=O)c1cc2c([125I])cccc2cn1.Cl.Cl
5. CCN(CC)CCNC(=O)c1ccc2cc([125I])ccc2c1.Cl
6. CCN(CC)CCNC(=O)c1ccc2cncc([125I])c2n1.Cl.Cl

Result ::
1. 2.34
2. 1.72
3. 2.17
4. 1.96
5. 1.1
6. 9.86

---

- Tested on: Liver
- Experimental Details: Biodistribution in liver of C57BL/6 mouse bearing mouse B16-F0 cells at 0.74 to 0.92 MBq, iv after 24 hrs
- Assay type: ADME, organism-based
- Recorded Conditions: in vivo
// boundary case: Drug uptake equal to 0.4 % ID/g maps to n; strictly smaller maps to y

Answered examples (5):
CCN(CC)CCNC(=O)c1cnc2cc([125I])ccc2n1.Cl.Cl ... n
CCN(CC)CCNC(=O)c1cc2cc([125I])ccc2[nH]1.Cl ... n
CCN(CC)CCNC(=O)c1cc2c([125I])cccc2cn1.Cl.Cl ... n
CCN(CC)CCNC(=O)c1ccc2cc([125I])ccc2n1.Cl.Cl ... n
CCN(CC)CCNC(=O)c1cc2cc([125I])ccc2o1.Cl ... n

Query :: Does the reported Drug uptake of the following compound sit strictly below 0.4 % ID/g? `CCN(CC)CCNC(=O)c1c[nH]c2ccc([125I])cc2c1=O.Cl.Cl`
Result :: y

Reference source: ChEMBL document CHEMBL1150393
